The origin of these recorded values is PubChem BioAssay AID1224855.

Experiment: Confirmation assay for measurement of the activity of small molecule inhibitors on Zika virus induced Caspase-3 activity in human iPSC derived neural progenitor cells (hNPCs)
Details: hNPC ZIKV-induced caspase-3/7, Caspase-Glo luminescence, 6 h; series mostly up to 46.1 µM
Inconclusive results are not listed. Activity calls are given as the source filed them. Calls follow the shape of the dose curve; as a rule, active = well fitted inhibition curve with a large enough effect; inconclusive = small, poorly fitted or top-dose-only effect; inactive = no such curve, though single readings can be large or run the other way.
Select the matching outcome among active, inactive

Compound	Assigned class
CN1CC(=O)N/C1=N/C(=O)Nc1cccc(Cl)c1	active
CO[C@H]1C(=O)[C@]2(C)[C@@H](OC)C[C@H]3OC[C@@]3(OC(C)=O)[C@H]2[C@H](OC(=O)c2ccccc2)[C@]2(O)C[C@H](OC(=O)[C@H](O)[C@@H](NC(=O)OC(C)(C)C)c3ccccc3)C(C)=C1C2(C)C	inactive
O=C(O)c1cccc(-c2noc(-c3ccccc3F)n2)c1	active

Lab note: next compound to report on.
Lookup: Given Cc1ccc(C(=O)c2ccc(CC(=O)O)n2C)cc1 , state the outcome it received in this test.
Found: inactive
